# tgt: T1, canine NGF tagged at the C-terminus with the Flag tag (canine, UniProt A0A8I3PYI3 122-241)
# T1 construct: mature; Expressed with baculovirus technology; also called feline NGF (processed form identical)
# protocol: SPR off-rate screen, Fab-SASA on BSA chip
measurementType: koff (s⁻¹)
Give the number; s⁻¹ is assumed, so skip it.

Request: Look up koff: felinized clone 101 Fab-SASA variant N53H (VL) (Fab, V domains shown, not shown: small tags and cut ends) VH: DVQLVESGGDLVKPGGSLRLTCVASGLSLTSSSMSWVRQAPGKGLQWVSTIYSNGGTYYTDSVKGRFTISKDNAENTLYLQMNNLKTEDTATYYCASIYYYDADYLHWYFDFWGQGALVTVSS VL: EIQMTQSPTSLSASVGDRVTITCRASEGISNNLSWYQQTPGKAPKLLIYATSHLHSGVPSRFSGSGSGTDFTLTISSLQPEDFATYYCQQGYKWPLTFGGGTKLEITR
Response: 0.000627
